# Test system: 786-0 renal
# ASSAY: NCI tumour cell line growth inhibition, 48 h
We begin with a simple list: items and their reported log10 of TGI.
Note: values are log10 of TGI expressed in µM.

molecule="O=C1OC(c2ccc(O)c(Cl)c2)(c2ccc(O)c(Cl)c2)c2ccc(Br)c3cccc1c23 (tested in a mixture with another compound)" observed=1.55

Challenge: I would be grateful if you could share the reported log10 of TGI for Cc1csc2nc(-c3ccc([N+](=O)[O-])cc3)c(/C=N/N=C(N)N)n12 .
Response given: 0.51

Challenge: So what does the record say about log10 of TGI for COCCOC(=O)C1=C(C)NC2=C(C(=O)CC(c3ccccc3OC)C2)C1c1cccc(O)c1 (stereo not given) ?
Response given: 1.71

Challenge: Given the molecule CC1(c2ccc(Cl)cc2)CC(c2ccc(Cl)cc2)=C(C#N)C(=C(C#N)C#N)N1 (stereo not given) , what is its reported log10 of TGI?
Response given: 1.39

Challenge: Report log10 of TGI for CCC[C@H](N[C@@H]1CCc2cc(F)cc(F)c2C1)C(=O)Nc1cn(C(C)(C)CNCC(C)(C)C)cn1 please.
Response given: 1.73

* * *

# Tested on: SNB-75 CNS
# ASSAY: NCI tumour cell line growth inhibition, 48 h
Overview of reported GI50 across a group of compounds:

Worked examples follow.
compound=CS(=O)(=O)CCNCc1ccc(-c2ccc3ncnc(Nc4ccc(OCc5cccc(C(F)(F)F)c5)cc4)c3c2)o1 reported_metric=GI50 observed="8210 nM"
compound=N#Cc1ccccc1C#C/C=C\C#Cc1ccc(OCCCNC(=O)c2cc3ccccc3[nH]2)cc1 reported_metric=GI50 observed="17900 nM"
compound="COCCOC(=O)C1=C(C)NC2=C(C(=O)CC(c3ccccc3OC)C2)C1c1cccc(O)c1 (configuration not stated)" reported_metric=GI50 observed="2430 nM"
compound=Brc1ccc([I+]c2ccc(Br)cc2)cc1 reported_metric=GI50 observed="1600 nM"
compound="CCC(Sc1nnc2c3ccccc3n(CC)c2n1)C(=O)Nc1ccccc1OC (configuration not stated)" reported_metric=GI50 observed="10800 nM"
compound=O=C(Nc1cc(C(F)(F)F)ccc1F)Nc1n[nH]c2ccccc12 reported_metric=GI50 observed="40100 nM"
compound=COc1cnc2c(c1)C(=O)c1c-2n(CCCn2ccnc2)c(=O)c2cc(Cl)ccc12 reported_metric=GI50 observed="219 nM"
compound="CCN(CC)c1ccc2c(c1)Oc1nc(N)c(C#N)c(N)c1C2Sc1ccc(SC)cc1 (configuration not stated)" reported_metric=GI50 observed="1560 nM"
compound=CCC[CH2][Sn]([CH2]CCC)([O]C(=O)c1cccc(F)c1)[O]C(=O)c1cccc(F)c1 reported_metric=GI50 observed="657 nM"
compound=C#C[C@]1(O)CC[C@H]2[C@@H]3CC=C4c5sc(N=C(N)N)nc5CC[C@]4(C)[C@H]3CC[C@@]21C reported_metric=GI50 observed="152 nM"

Challenge: Form field - read-out: GI50; system: SNB-75 CNS; submitted item: COc1cccc(/C=N\Nc2ccc([N+](=O)[O-])cn2)c1O
Response given: 8780 nM

Challenge: Query for SNB-75 CNS: what GI50 does the record show for COc1cc(CSc2nc3ccc(C)cc3c(=O)n2Cc2ccccc2)cc(OC)c1OC ?
Response given: 804 nM
